Item-by-item account of pIC50
assay-system: FLAG-tagged full length PHD2 (Homo sapiens, UniProt Q9GZT9)
Construct: FLAG-tagged full length PHD2 expressed in and purified from baculovirus-infected Sf9 cells; FLAG
Sequence (Q9GZT9 whole entry): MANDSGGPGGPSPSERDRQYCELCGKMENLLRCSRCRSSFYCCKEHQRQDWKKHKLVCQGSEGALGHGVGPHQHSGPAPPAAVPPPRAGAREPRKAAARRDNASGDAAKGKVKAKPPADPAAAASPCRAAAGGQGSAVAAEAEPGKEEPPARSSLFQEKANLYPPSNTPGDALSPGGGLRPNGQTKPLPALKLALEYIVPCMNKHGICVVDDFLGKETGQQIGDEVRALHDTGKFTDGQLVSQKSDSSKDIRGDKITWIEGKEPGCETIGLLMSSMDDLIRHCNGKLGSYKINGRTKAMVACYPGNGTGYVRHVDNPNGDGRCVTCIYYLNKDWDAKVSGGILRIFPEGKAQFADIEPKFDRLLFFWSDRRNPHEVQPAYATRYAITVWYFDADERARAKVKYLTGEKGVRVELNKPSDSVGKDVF
experimental-protocol: PHD2 inhibition assay (time resolved fluorescence, HIF-1α peptide hydroxylation, VHL complex detection)
experimental-conditions: 0.2 μM 2-oxoglutarate, 0.5 μM HIF-1α peptide
pIC50: −log10 of the molar value.
reported-metric: pIC50

INSERT INTO results (compound, assay_system, reported_metric, reported_measurement) VALUES
  ('CCOP(=O)(O)c1ccc(C(C)NC(=O)c2cnc(-c3ccccn3)nc2O)cc1 (stereo not drawn)', 'FLAG-tagged full length PHD2 (Homo sapiens, UniProt Q9GZT9)', 'pIC50', '5.00 to 7.00'),
  ('CC(NC(=O)c1cnc(-n2cccn2)nc1O)c1ccc(P(=O)(O)O)cc1 (stereo not drawn)', 'FLAG-tagged full length PHD2 (Homo sapiens, UniProt Q9GZT9)', 'pIC50', '7.00 to 7.70'),
  ('C[C@H](NC(=O)c1cnc(-c2ccccn2)nc1O)c1ccc(P(=O)(O)O)cc1', 'FLAG-tagged full length PHD2 (Homo sapiens, UniProt Q9GZT9)', 'pIC50', '5.00 to 7.00'),
  ('COc1ccc(C(NC(=O)c2cnc(-n3cccn3)nc2O)c2ccc([PH](=O)O)cc2)cc1 (stereo not drawn)', 'FLAG-tagged full length PHD2 (Homo sapiens, UniProt Q9GZT9)', 'pIC50', '7.70 to 9.30'),
  ('COc1ccc(C(NC(=O)c2cnc(-c3ccccn3)nc2O)c2cccc(P(=O)(O)O)c2)cc1 (stereo not drawn)', 'FLAG-tagged full length PHD2 (Homo sapiens, UniProt Q9GZT9)', 'pIC50', '7.70 to 9.30'),
  ('CCOC(=O)C(C)NP(=O)(N[C@@H](C)C(=O)OCC)c1ccc(C(NC(=O)c2cnc(-c3ccccn3)nc2O)c2ccc(OC)cc2)cc1 (stereo in doubt)', 'FLAG-tagged full length PHD2 (Homo sapiens, UniProt Q9GZT9)', 'pIC50', '7.00 to 7.70'),
  ('CP(=O)(O)c1ccc([C@@H](NC(=O)c2cnc(-n3cccn3)nc2O)c2ccc(F)cc2)cc1', 'FLAG-tagged full length PHD2 (Homo sapiens, UniProt Q9GZT9)', 'pIC50', '7.70 to 9.30'),
  ('CP(=O)(O)c1cccc([C@H](NC(=O)c2cnc(-n3cccn3)nc2O)c2ccccc2)c1', 'FLAG-tagged full length PHD2 (Homo sapiens, UniProt Q9GZT9)', 'pIC50', '7.70 to 9.30'),
  ('CCOP(=O)(OCC)C(NC(=O)c1cnc(-n2cccn2)nc1O)c1ccc(OC)cc1 (stereo not drawn)', 'FLAG-tagged full length PHD2 (Homo sapiens, UniProt Q9GZT9)', 'pIC50', '7.70 to 9.30'),
  ('C[C@@H](NC(=O)c1cnc(-c2cccnn2)nc1O)c1ccc(P(=O)(O)O)cc1', 'FLAG-tagged full length PHD2 (Homo sapiens, UniProt Q9GZT9)', 'pIC50', '7.00 to 7.70'),
  ('O=C(NC(c1ccccc1)P(=O)(O)O)c1cnc(-c2cccnn2)nc1O (stereo not drawn)', 'FLAG-tagged full length PHD2 (Homo sapiens, UniProt Q9GZT9)', 'pIC50', '7.00 to 7.70'),
  ('CP(=O)(O)c1ccc([C@@H](NC(=O)c2cnc(-n3cccn3)nc2O)c2ccccc2)cc1', 'FLAG-tagged full length PHD2 (Homo sapiens, UniProt Q9GZT9)', 'pIC50', '7.70 to 9.30'),
  ('CCOC(=O)[C@H](C)NP(=O)(N[C@@H](C)C(=O)OCC)c1ccc(C(NC(=O)c2cnc(-c3cccnn3)nc2O)c2ccc(OC)cc2)cc1 (stereo partly drawn)', 'FLAG-tagged full length PHD2 (Homo sapiens, UniProt Q9GZT9)', 'pIC50', '7.70 to 9.30'),
  ('CCOP(=O)(OCC)c1ccc(C(C(=O)Nc2cnc(-c3cccnn3)nc2O)c2ccccc2)cc1 (stereo not drawn)', 'FLAG-tagged full length PHD2 (Homo sapiens, UniProt Q9GZT9)', 'pIC50', '5.00 to 7.00'),
  ('CCOP(=O)(O)c1ccc(C(NC(=O)c2cnc(-c3ccccn3)nc2O)c2ccccc2)cn1 (stereo not drawn)', 'FLAG-tagged full length PHD2 (Homo sapiens, UniProt Q9GZT9)', 'pIC50', '7.70 to 9.30');

---

Item-by-item account of IC50
assay-system: FLAG-tagged full length PHD2 (Homo sapiens)
Construct: FLAG-tagged full length PHD2 expressed in and purified from baculovirus-infected Sf9 cells; FLAG
experimental-protocol: PHD2 inhibition assay (time resolved fluorescence, HIF-1α peptide hydroxylation, VHL complex detection)
experimental-conditions: 0.2 μM 2-oxoglutarate, 0.5 μM HIF-1α peptide
Procedure: To each well of a 96-well plate was added 1 μL of test compound in DMSO and 20 μl of assay buffer (50 mM Tris pH 7.4/0.01% Tween-20/0.1 mg/ml bovine serum albumin/10 μM ferrous sulfate/i mM sodium ascorbate/20 μg/ml catalase) containing 0.15 μg/ml FLAG-tagged full length PHD2 expressed in and purified from baculovirus-infected Sf9 cells. […]
reported-metric: IC50

INSERT INTO measurements (compound, reported_measurement) VALUES
  ('CP(=O)(O)c1ccc([C@H](NC(=O)c2cnc(-n3cccn3)nc2O)C2CCCCC2)cc1', '0.5 to 20 nM'),
  ('CP(=O)(O)c1cccc([C@@H](NC(=O)c2cnc(-n3cccn3)nc2O)c2ccccc2)c1', '0.5 to 20 nM'),
  ('CCOP(=O)(OCC)c1ccc(C(NC(=O)c2cnc(-c3cccnn3)nc2O)c2ccccc2)cc1 (stereo not shown)', '0.5 to 20 nM'),
  ('O=C(Cc1cccc(P(=O)(O)O)c1)Nc1cnc(-c2cccnn2)nc1O', '100 to 10000 nM');

---

assay-system: FLAG-tagged full length PHD2 (Homo sapiens, UniProt Q9GZT9)
Construct: FLAG-tagged full length PHD2 expressed in and purified from baculovirus-infected Sf9 cells; FLAG
experimental-protocol: PHD2 inhibition assay (time resolved fluorescence, HIF-1α peptide hydroxylation, VHL complex detection)
experimental-conditions: 0.2 μM 2-oxoglutarate, 0.5 μM HIF-1α peptide
reported-metric: IC50

INSERT INTO measurements (compound, reported_measurement) VALUES
  ('CP(=O)(O)c1ccc([C@@H](NC(=O)c2cnc(-n3cccn3)nc2O)C2CCCCC2)cc1', '0.5 to 20 nM'),
  ('COc1ccc(C(NC(=O)c2cnc(-c3cccnn3)nc2O)P(=O)(O)O)cc1 (stereo not shown) [Compound 36-1]', '20 to 100 nM'),
  ('CCOP(=O)(OCC)c1ccc(C(C)C(=O)Nc2cnc(-c3ccccn3)nc2O)cc1 (stereo not shown)', '100 to 10000 nM'),
  ('COc1ccc(C(NC(=O)c2cnc(-c3ccccn3)nc2O)c2ccc(P(=O)(O)O)cc2)cc1 (stereo not shown)', '0.5 to 20 nM'),
  ('CCOC(=O)CNP(=O)(NCC(=O)OCC)c1ccc(C(NC(=O)c2cnc(-c3ccccn3)nc2O)c2ccc(OC)cc2)cc1 (stereo not shown)', '20 to 100 nM'),
  ('C[C@H](NC(=O)c1cnc(-n2cccn2)nc1O)c1ccc(P(=O)(O)O)cc1', '100 to 10000 nM'),
  ('CP(=O)(O)c1ccc([C@H](NC(=O)c2cnc(-n3cccn3)nc2O)c2ccc(F)cc2F)cc1', '0.5 to 20 nM'),
  ('CP(=O)(O)c1ccc(C(NC(=O)c2cnc(-n3cccn3)nc2O)c2ccc(F)cc2)cc1 (stereo not shown)', '0.5 to 20 nM'),
  ('CCOC(=O)C(C)(C)NP(=O)(NC(C)(C)C(=O)OCC)c1ccc(C(NC(=O)c2cnc(-c3ccccn3)nc2O)c2ccc(OC)cc2)cc1 (stereo not shown)', '0.5 to 20 nM'),
  ('CCOP(=O)(OCC)c1ccc(C(NC(=O)c2cnc(-c3ccccn3)nc2O)c2ccc(OC)cc2)cc1 (stereo not shown)', '0.5 to 20 nM'),
  ('COc1ccc(C(NC(=O)c2cnc(-c3ccccn3)nc2O)c2ccc([PH](=O)O)cc2)cc1 (stereo not shown)', '0.5 to 20 nM'),
  ('C[C@@H](NC(=O)c1cnc(-c2ccccn2)nc1O)c1ccc(P(=O)(O)O)cc1', '100 to 10000 nM'),
  ('CCOP(=O)(OCC)c1ccc(C(NC(=O)c2cnc(-c3ccccn3)nc2O)c2ccccc2)cc1 (stereo not shown)', '0.5 to 20 nM'),
  ('C[C@H](NC(=O)c1cnc(-c2cccnn2)nc1O)c1ccc(P(=O)(O)O)cc1', '100 to 10000 nM'),
  ('C[C@@H](NC(=O)c1cnc(-n2cccn2)nc1O)c1ccc(P(=O)(O)O)cc1', '0.5 to 20 nM'),
  ('CCOP(=O)(OCC)c1ccc(C(C)(C)C(=O)Nc2cnc(-n3cccn3)nc2O)cc1', '100 to 10000 nM'),
  ('COc1ccc(C(NC(=O)c2cnc(-c3cccnn3)nc2O)c2ccc([PH](=O)O)cc2)cc1 (stereo not shown)', '0.5 to 20 nM'),
  ('CP(=O)(O)c1ccc([C@H](NC(=O)c2cnc(-n3cccn3)nc2O)c2ccc(F)cc2)cc1', '0.5 to 20 nM'),
  ('CC(NC(=O)c1cnc(-c2ccccn2)nc1O)c1ccc(P(=O)(O)O)cc1 (stereo not shown)', '100 to 10000 nM'),
  ('CP(=O)(O)c1ccc([C@@H](NC(=O)c2cnc(-n3cc(F)cn3)nc2O)c2ccc(F)cc2)cc1', '100 to 10000 nM'),
  ('CCOP(=O)(OCC)c1ccc(C(C)C(=O)Nc2cnc(-n3cccn3)nc2O)cc1 (stereo not shown)', '100 to 10000 nM'),
  ('COc1ccc(C(NC(=O)c2cnc(-c3cccnn3)nc2O)c2ccc(CP(=O)(O)O)cc2)cc1 (stereo not shown)', '0.5 to 20 nM'),
  ('CC(NC(=O)c1cnc(-c2cccnn2)nc1O)c1ccc(P(=O)(O)O)cc1 (stereo not shown)', '100 to 10000 nM'),
  ('CP(=O)(O)c1ccc(C(NC(=O)c2cnc(-n3cccn3)nc2O)c2ccccc2)cc1 (stereo not shown)', '0.5 to 20 nM'),
  ('CCCP(=O)(O)c1ccc(C(NC(=O)c2cnc(-n3cccn3)nc2O)c2ccccc2)cc1 (stereo not shown)', '0.5 to 20 nM'),
  ('CCOP(=O)(OCC)c1ccc(C(NC(=O)c2cnc(-n3cccn3)nc2O)c2ccccc2)cc1 (stereo not shown)', '0.5 to 20 nM'),
  ('O=C(NC(c1ccc2ccccc2c1)P(=O)(O)O)c1cnc(-c2cccnn2)nc1O (stereo not shown)', '0.5 to 20 nM'),
  ('CC(C)OP(=O)(OC(C)C)C(NC(=O)c1cnc(-c2ccccn2)nc1O)c1ccccc1 (stereo not shown)', '0.5 to 20 nM'),
  ('CC(C)OP(=O)(O)C(NC(=O)c1cnc(-c2ccccn2)nc1O)c1ccccc1 (stereo not shown)', '20 to 100 nM'),
  ('CCOP(=O)(OCC)c1ccc(C(NC(=O)c2cnc(-c3ccccn3)nc2O)c2ccccc2)cn1 (stereo not shown)', '0.5 to 20 nM'),
  ('CCOP(C)(=O)c1ccc(C(NC(=O)c2cnc(-c3ccccn3)nc2O)c2ccccc2)cc1 (stereo not shown)', '0.5 to 20 nM');
